# tested system: αIIbβ3 integrin, P08514
# test summary: inhibition of adhesion of A5 cells to fibrinogen
result type: pIC50
Give bare numbers, as −log10 of the molar value.

So what does the record say about pIC50 for QEEPCATGPCCRRCKFKRAGKVCRVARGDWNDDYCTGKSCDCPKNPWNG (modifications not checked) [eristostatin, P0C6S4 1-49] ? 7.30
